Reported values of melting point for individual entries

INSERT INTO results (compound, recorded_result) VALUES
  ('O=C(COc1ccc(C#Cc2ccccc2)cc1)Nc1cccc(C(=O)O)c1 [Compound 28]', '242 to 244 °C'),
  ('Cc1ccc(C(=O)O)cc1NC(=O)COc1ccc(C(C)C)c(C)c1 [Compound 48]', '188 to 189 °C'),
  ('O=C(O)c1cccc(N2CCC(Oc3ccc(Oc4ccc(C(F)(F)F)cc4)cc3)C2=O)c1 (stereo not drawn) [Compound 37]', '175 to 178 °C'),
  ('CC(C)c1ccccc1OCC(=O)Nc1cccc(C(=O)O)c1 [Compound 43]', '168 to 170 °C'),
  ('Cc1cc(OC2CCN(c3cccc(C(=O)O)c3)C2=O)cc(C(C)C)c1 (stereo not drawn) [Compound 87]', '134 to 138 °C'),
  ('N#Cc1ccc(OCC(=O)Nc2cccc(C(=O)O)c2)cc1 [Compound 62]', '210 to 213 °C');

Quick check: melting point of O=C(COc1ccc(Cc2ccccc2)cc1)Nc1cccc(C(=O)O)c1 [Compound 69] ? 205 to 209 °C

* * *

Reported values of melting point for individual entries

Examples with answers:
INSERT INTO assay_data (compound, recorded_result) VALUES
  ('O=C(COc1ccc(C2CCCC2)cc1)Nc1cccc(C(=O)O)c1 [Compound 24]', '212 to 213 °C'),
  ('CC(C)(C)c1ccc(OC2CCN(c3cccc(C(=O)O)c3)C2=O)cc1 (stereo not drawn) [Compound 88]', '238 to 241 °C'),
  ('Cc1cccc(-c2ccc(OCC(=O)Nc3cccc(C(=O)O)c3)cc2)c1 [Compound 10]', '225 to 226 °C'),
  ('Cc1cc(OCC(=O)Nc2cc(C(=O)O)ccc2Cl)ccc1C(C)C [Example 4]', '174 to 175 °C'),
  ('O=C(COc1ccc(CO)cc1)Nc1cccc(C(=O)O)c1 [Compound 55]', '209 to 212 °C'),
  ('O=C(O)c1cccc(N2CCC(Oc3ccc(Cl)cc3)C2=O)c1 (stereo not drawn) [Compound 75]', '192 to 193 °C'),
  ('Cc1ccc(C(C)C)cc1OCC(=O)Nc1cccc(C(=O)O)c1 [Compound 45]', '211 to 213 °C'),
  ('Cc1ccc(C(C)C)c(OCC(=O)Nc2cccc(C(=O)O)c2)c1 [Compound 40]', '211 to 213 °C');

Quick check: melting point of O=C(COc1ccc2ccccc2c1)Nc1cccc(C(=O)O)c1 [Compound 52] ? 223 to 224 °C

* * *

observed.property: melting point

Examples with answers:
INSERT INTO measurements (compound, recorded_result) VALUES
  ('Cc1cc(OCC(=O)Nc2cccc(C(=O)O)c2Cl)ccc1C(C)C', '161 to 162 °C'),
  ('O=C(O)c1cccc(N2CCC(Oc3ccc(OC(F)(F)F)cc3)C2=O)c1 (stereo not drawn)', '190 to 191 °C');

In the following, a different compound is considered.
Quick check: melting point of O=C(COc1ccc(C(=O)c2ccccc2)cc1)Nc1cccc(C(=O)O)c1 ? 208 to 210 °C

* * *

Reported values of melting point for individual entries

INSERT INTO results (compound, observed_property, recorded_result) VALUES
  ('N#CCc1ccc(OCC(=O)Nc2cccc(C(=O)O)c2)cc1', 'melting point', '245 to 247 °C'),
  ('CCC(C)(C)c1ccc(OCC(=O)Nc2cccc(C(=O)O)c2)cc1', 'melting point', '164 to 165 °C'),
  ('O=C(COc1ccc(Cc2nnc(-c3ccccc3)o2)cc1)Nc1cccc(C(=O)O)c1', 'melting point', '207 to 210 °C'),
  ('O=C(COc1ccc(Cc2nn[nH]n2)cc1)Nc1cccc(C(=O)O)c1', 'melting point', '267 to 268 °C'),
  ('Cc1cc(OCC(=O)Nc2ccc(O)c(C(=O)O)c2)ccc1C(C)C', 'melting point', '101 to 103 °C');

Quick check: melting point of Cc1cc(OCC(=O)Nc2cccc(C(=O)O)c2)ccc1Cl ? 197 to 198 °C

Would you mind doing O=C(COc1ccc(Cl)c(F)c1)Nc1cccc(C(=O)O)c1 as well? 242 to 244 °C

Would you mind doing O=C(COc1ccc(Oc2ccc(C(F)(F)F)cc2)cc1)Nc1cccc(C(=O)O)c1 as well? 189 to 190 °C
